Ref: paper PMC3259534

- subject.of.test: MRG15 MRG polypeptide (residues 155–323), K201R background (human) (UniProt Q9UBU8)
- assay.summary: ITC
pKd: −log10 of the molar value.
The reader will find reported pKd values listed item by item below.
endpoint: pKd

[[record]]
binder = "DYVQPQLRRPFELAIAAAMERNPTQFQLPNELTCTTALPGSS (domain or fragment) [Pf1 MBD L213A]"
test_result = 6.55

[[record]]
binder = "DYVQPQLRRPFELLIAAAMEREPTQFQLPNELTCTTALPGSS (domain or fragment) [Pf1 MBD N221E]"
test_result = 7.82

[[record]]
binder = "DYVQPQLRRPAELLIAAAMERNPTQFQLPNELTCTTALPGSS (domain or fragment) [Pf1 MBD F210A]"
test_result = 5.59

[[record]]
binder = "DYVQPQLRRPFELLIAAAMERNPTQFQLPNELTCTTALPGSS (domain or fragment) [Pf1 MBD (MRG-binding domain, residues 200–241)]"
test_result = 7.92

